# subject of test: horseradish peroxidase (Armoracia rusticana)
# Sequence (P00433 31-353): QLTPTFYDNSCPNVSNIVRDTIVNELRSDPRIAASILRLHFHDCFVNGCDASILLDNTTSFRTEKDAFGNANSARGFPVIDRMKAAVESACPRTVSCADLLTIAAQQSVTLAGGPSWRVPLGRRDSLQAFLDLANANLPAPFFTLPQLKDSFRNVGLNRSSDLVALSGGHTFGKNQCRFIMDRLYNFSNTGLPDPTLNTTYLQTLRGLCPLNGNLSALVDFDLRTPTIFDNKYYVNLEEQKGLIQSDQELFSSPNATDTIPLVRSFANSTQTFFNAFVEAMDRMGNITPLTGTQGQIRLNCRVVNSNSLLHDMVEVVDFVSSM
# procedure details: Detection of hydrogen peroxide: fluorescence of indicator compounds after adding horseradish peroxidase and hydrogen peroxide
# Format: biochemical
# experimental setup: 25 secs, 1.0 μM compound, pH 7.0 or 7.5, 37° C., nM of fluorescent standard equivalent
endpoint: Relative Fluorescence of Indicator Compounds, Fluorescence Units, 25 secs (nM)

CCOC(=O)C1Cc2ccc(NC)cc2NC1=O (stereo not drawn) [Compound 6]	4.0
CN(C)c1ccc2c(c1)NC(=O)C(C(=O)[O-])C2.[K+] (stereo not drawn) [Compound 7]	12.3
CCOC(=O)C1Cc2cc3c4c(c2OC1=O)CCCN4CCC3 (stereo not drawn) [Compound 17]	8.8

[P] CCOC(=O)C1Cc2ccc(O)cc2N(C)C1=O (stereo not drawn) [Compound 16]
[Q] CCNC(=O)C1Cc2ccc(N(C)C)cc2N(C)C1=O (stereo not drawn) [Compound 11]
[R] CCOC(=O)C1Cc2ccc(N(C)C)cc2NC1=O (stereo not drawn) [Compound 5]
In: Please list these in order of increasing Relative Fluorescence of Indicator Compounds, Fluorescence Units, 25 secs. Thank you! Provide your answer as the labels ordered per the instruction.
Out: P, Q, R
(P: 4.3 nM, Q: 8.9 nM, R: 81.5 nM)
